System: HEC1A
METHOD DESCRIPTION: MTT cytotoxicity, HEC1A
Assay type: cell-based, human
ASSAY CONDITIONS: 48 h incubation, read-out: Cytotoxic effect, IC50
VALUE TYPE: pIC50
# pIC50 = -log10(concentration in molar units)

COMPOUND	RESULT NUMBER
Cc1ccc(C(C)C)cc1.Cc1ccc(C(C)C)cc1.[Cl][Ru][Cl].[Cl][Ru][Cl] [compound 4, dichloro(p-cymene)ruthenium(II), reference compound]	3.97
Cc1ccc(C(C)C)cc1.F[P-](F)(F)(F)(F)F.NC(=S)n1nc(-c2ccccc2)cc1O.[Cl-].[Ru+2]	4.40
Cc1cc(O)n(C(N)=S)n1.Cc1ccc(C(C)C)cc1.[Cl-].[Cl][Ru+]	4.17
Cc1ccc(C(C)C)cc1.NC(=S)n1nc(-c2ccccc2)cc1O.[Cl-].[Cl][Ru+]	4.61
Cc1cc(C)n(C(N)=S)n1.Cc1ccc(C(C)C)cc1.[Cl-].[Cl][Ru+]	4.21

Prompt: Hello, I am looking for reported pIC50 with HEC1A for CCc1cc(CC)n(C(N)=S)n1.Cc1ccc(C(C)C)cc1.F[P-](F)(F)(F)(F)F.[Cl-].[Ru+2] . Could you help?
Response: 4.40

Prompt: Hello, I am looking for reported pIC50 with HEC1A for Cc1cc(O)n(C(N)=S)n1.Cc1ccc(C(C)C)cc1.F[P-](F)(F)(F)(F)F.[Cl-].[Ru+2] . Could you help?
Response: 3.89

Prompt: Hello, I am looking for reported pIC50 with HEC1A for CCc1cc(CC)n(C(N)=S)n1.Cc1ccc(C(C)C)cc1.[Cl-].[Cl][Ru+] . Could you help?
Response: 4.44

Prompt: Hello, I am looking for reported pIC50 with HEC1A for Cc1cc(C)n(C(N)=S)n1.Cc1ccc(C(C)C)cc1.F[P-](F)(F)(F)(F)F.[Cl-].[Ru+2] . Could you help?
Response: 4.11

---

Test system: Hep 3b
METHOD DESCRIPTION: MTT cytotoxicity, Hep 3b
Format: cell-based, human
ASSAY CONDITIONS: 48 h incubation, read-out: Cytotoxic effect, IC50
pIC50: −log10 of the molar value.
Param threshold (4) applies to pIC50; output 1.0 when value >= threshold, 0.0 when value < threshold.

Worked examples follow.
COMPOUND	CATEGORY
Cc1cc(C)n(C(N)=S)n1.Cc1ccc(C(C)C)cc1.[Cl-].[Cl][Ru+]	0.0
Cc1ccc(C(C)C)cc1.Cc1ccc(C(C)C)cc1.[Cl][Ru][Cl].[Cl][Ru][Cl] [compound 4, dichloro(p-cymene)ruthenium(II), reference compound]	0.0
Cc1cc(O)n(C(N)=S)n1.Cc1ccc(C(C)C)cc1.F[P-](F)(F)(F)(F)F.[Cl-].[Ru+2]	0.0
CCc1cc(CC)n(C(N)=S)n1.Cc1ccc(C(C)C)cc1.F[P-](F)(F)(F)(F)F.[Cl-].[Ru+2]	1.0
CCc1cc(CC)n(C(N)=S)n1.Cc1ccc(C(C)C)cc1.[Cl-].[Cl][Ru+]	0.0

Prompt: Threshold query (pIC50 >= 4) on Cc1cc(C)n(C(N)=S)n1.Cc1ccc(C(C)C)cc1.F[P-](F)(F)(F)(F)F.[Cl-].[Ru+2]
Response: 1.0

Prompt: Threshold query (pIC50 >= 4) on Cc1cc(O)n(C(N)=S)n1.Cc1ccc(C(C)C)cc1.[Cl-].[Cl][Ru+]
Response: 0.0

Prompt: Threshold query (pIC50 >= 4) on Cl.[Cl-].[Cl-].[Cl-].[Ru+3].c1c[nH]cn1.c1c[nH]cn1 [NAMI-A, reference compound]
Response: 0.0

Prompt: Threshold query (pIC50 >= 4) on Cc1ccc(C(C)C)cc1.F[P-](F)(F)(F)(F)F.NC(=S)n1nc(-c2ccccc2)cc1O.[Cl-].[Ru+2]
Response: 1.0

Numbers sourced from paper PMC10180065.
